Hey, just so you know, these numbers are from ChEMBL document CHEMBL1201862.

Tested on: SF-268
assay.summary: NCI tumour cell line growth inhibition, 48 h
The source made the active and inactive calls. No stated cut-off is given here; in the data, active = GI50 up to about 1.1 µM and inactive = higher.
Classes used: active, inactive

- molecule: "O=C1C(=O)N(C(=O)c2ccc(Cl)c(Cl)c2)c2ccc(Cl)cc21"
  class: "inactive"
- molecule: "CN(C)CCNCc1ccc2c(-c3ccccc3)nc3cc(Cl)c(Cl)cc3n12"
  class: "inactive"
- molecule: "CC[C@@]1(OC(=O)C(N)CCC(=O)O)C(=O)OCc2c1cc1n(c2=O)Cc2cc3ccccc3nc2-1 (stereo not given in full)"
  class: "active"
- molecule: "[O-][n+]1c2ccccc2[n+]([O-])c2ccccc21"
  class: "inactive"
- molecule: "COc1cc(C(=O)NNC(=O)c2cc(Br)ccc2NC(=O)c2cccs2)cc(OC)c1OC"
  class: "inactive"
- molecule: "Oc1ccc(/C=C\\c2nnc(/C=C\\c3ccc(O)c(O)c3)s2)cc1O"
  class: "inactive"
- molecule: "CC1=C(C(=O)Nc2ccccc2C)C(c2ccccc2)C(C(=O)Nc2ccccc2C)=C(C)N1"
  class: "inactive"
- molecule: "C=CC(C)(C)c1c(OC)oc2ccc(OC)c(C)c2c1=O"
  class: "inactive"
- molecule: "NC(=O)CSc1c2cc(O)ccc2nc2ccc(O)cc12"
  class: "inactive"
- molecule: "COC(=O)c1c(O)ccc2c1c1cc3ccccc3c(O)c1n2Cc1ccccc1Cl"
  class: "inactive"
- molecule: "O=C1C=CC2(O[C@H](c3ccccc3)[C@@H](c3ccccc3)O2)[C@H](Sc2ccccc2O)C1"
  class: "active"
- molecule: "CNc1cccnc1/C=N/N=C(/N)S"
  class: "active"
- molecule: "N#CC(C(=O)/C(=N/NC(=O)c1ccccc1O)C(C#N)c1ccc(Br)cc1)c1ccc(Br)cc1 (stereo not given)"
  class: "inactive"
- molecule: "O=C1/C(=C/c2ccc(Cl)cc2)N=C(c2ccccc2)N1C1Nc2cc3c(cc2S1)NC(N1C(=O)/C(=C/c2ccc(Cl)cc2)N=C1c1ccccc1)S3 (stereo not given)"
  class: "inactive"
- molecule: "O=C(c1ccco1)N(C(=S)N1CCN(c2ccccc2)CC1)C1CCCCC1"
  class: "inactive"
- molecule: "C/C(=C\\COP(=O)(O)OP(=O)(O)O)CC/C=C(\\C)CNc1c(F)c(F)c(F)c(F)c1F"
  class: "inactive"
- molecule: "O=C(Oc1ccccn1)c1cc2cc(CCl)ccc2oc1=O"
  class: "inactive"
- molecule: "CC(=O)OCC1OC(OC2C(COC(C)=O)OC(Sc3ccccc3C)C(OC(C)=O)C2OC(C)=O)C(OC(C)=O)C(OC(C)=O)C1OC(C)=O (stereo not given)"
  class: "inactive"
- molecule: "CN(C)C(=S)/N=c1\\ss/c(=N\\C(=S)N(C)C)n1C1CCCCC1"
  class: "inactive"
- molecule: "CC/C(CC(=O)CCC(=O)Nc1ccc(C)c(C)c1)=N\\NC(=O)c1cc2ccccc2cc1O"
  class: "inactive"

----------
Below is a list of entries, each paired with its recorded GI50 value.
System: UO-31
assay.summary: NCI tumour cell line growth inhibition, 48 h
Calls of active or inactive are those of the source. Cut-off read from the data, not from the text of the source: active = GI50 up to about 1.1 µM and inactive = higher.

- compound: "Cc1cc(S(=O)(=O)Nc2nc(N)n[nH]2)c(SCC(=O)O)cc1Cl"
  GI50: "> 10 µM (inactive)"
- compound: "CCOP(C)(=O)C(N)Cc1ccc(OC)c(OC)c1 (stereo unspecified)"
  GI50: "> 100 µM (inactive)"
- compound: "CCOC(=O)C1C(=O)CC(O)(OCC)C(C(=O)OCC)C1c1ccc(OC)cc1 (stereo unspecified)"
  GI50: "> 100 µM (inactive)"
- compound: "NC(=O)c1cccc(/N=c2\\oc3ccc(Br)cc3cc2-c2nc3ccccc3[nH]2)c1"
  GI50: "7.76 µM (inactive)"
- compound: "O=C(O)Cc1ccccc1CCc1ccccc1Cl"
  GI50: "> 100 µM (inactive)"
- compound: "CCC1([N+](=O)[O-])CN(N=O)C1"
  GI50: "> 100 µM (inactive)"
- compound: "CC(=O)Oc1ccc2c(c1)c1c(OC(C)=O)c3ccccc3c(OC(C)=O)c1n2Cc1cccc(C)c1"
  GI50: "40 µM (inactive)"
- compound: "Cc1cc2[nH]c3[nH]c(=O)[nH]c(=O)c3c2cc1C"
  GI50: "> 100 µM (inactive)"
- compound: "Cn1nnc2c3c(N(CCO)CCO)ccnc3ccc21"
  GI50: "> 100 µM (inactive)"
- compound: "CC(C)(C)c1ccc(-c2nc3ccccc3c(=O)o2)cc1"
  GI50: "43.1 µM (inactive)"
- compound: "CCCCNc1nc2ccccc2c2c1ncn2CC(C)C"
  GI50: "> 100 µM (inactive)"
